Taken from ChEMBL document CHEMBL5230093.

Tested on: HeLa
PROTOCOL: Cytotoxicity against human HeLa cells
Assay type: functional, cell-based
ASSAY READOUT: pIC50
The read-out pIC50 is expressed as -log10 of concentration in moles per litre.

Q: Name the recorded pIC50 of the compound listed here: COc1cc(C(c2c[nH]c3ccccc23)c2c[nH]c3ccccc23)cc(Cl)c1O
A: 6.43

----------
System: HCT-15
PROTOCOL: Antiproliferative activity against human HCT-15 cells
Assay type: functional, cell-based
ASSAY READOUT: IC50 (nM)
Answer format: numeric, nM implied, no suffix.

Q: Assign IC50 to the following record: COc1ccc(CC/N=C2\NC(=O)/C(=C/c3c[nH]c4ccc(Br)cc34)S2)cc1
A: 920

----------
System: A549
PROTOCOL: Cytotoxicity against human A549 cells
Assay type: functional, cell-based
ASSAY READOUT: pIC50
pIC50 is defined as minus the log10 of a concentration measured in mol/L.

Q: Report measured pIC50 on A549; entry: CNC(=S)N/N=C/c1c(-c2ccc(OC)cc2)[nH]c2ccccc12
A: 4.90

----------
Test system: MCF7
PROTOCOL: Cytotoxicity against human MCF7 cells
Format: functional, cell-based
# reported IC50; entries follow
# number only, unit nM dropped from output

{"MOL SMILES": "O=C(Nc1ccc(Br)cc1)c1coc(-c2c[nH]c3cccnc23)n1", "TARGET ENTITY": "MCF7", "IC50 (nM)": 360}

Q: Quick one: give measured IC50 for O=C(Nc1cc([N+](=O)[O-])cc([N+](=O)[O-])c1)c1coc(-c2c[nH]c3cccnc23)n1
A: 34

----------
Test system: HepG2
PROTOCOL: Cytotoxicity against human HepG2 cells
Assay type: functional, cell-based
ASSAY READOUT: IC50 (µM)
Number only, in µM; omit the unit.

Q: Provide IC50 value for the following molecule: Cn1cc(C2=C(C#N)C(c3ccc(Cl)cc3)c3c(nc(N)[nH]c3=O)N2)c2ccccc21 (stereo unspecified)
A: 3.57

----------
TARGET ENTITY: Histone deacetylase 4 (Homo sapiens)
Sequence (P56524 whole entry): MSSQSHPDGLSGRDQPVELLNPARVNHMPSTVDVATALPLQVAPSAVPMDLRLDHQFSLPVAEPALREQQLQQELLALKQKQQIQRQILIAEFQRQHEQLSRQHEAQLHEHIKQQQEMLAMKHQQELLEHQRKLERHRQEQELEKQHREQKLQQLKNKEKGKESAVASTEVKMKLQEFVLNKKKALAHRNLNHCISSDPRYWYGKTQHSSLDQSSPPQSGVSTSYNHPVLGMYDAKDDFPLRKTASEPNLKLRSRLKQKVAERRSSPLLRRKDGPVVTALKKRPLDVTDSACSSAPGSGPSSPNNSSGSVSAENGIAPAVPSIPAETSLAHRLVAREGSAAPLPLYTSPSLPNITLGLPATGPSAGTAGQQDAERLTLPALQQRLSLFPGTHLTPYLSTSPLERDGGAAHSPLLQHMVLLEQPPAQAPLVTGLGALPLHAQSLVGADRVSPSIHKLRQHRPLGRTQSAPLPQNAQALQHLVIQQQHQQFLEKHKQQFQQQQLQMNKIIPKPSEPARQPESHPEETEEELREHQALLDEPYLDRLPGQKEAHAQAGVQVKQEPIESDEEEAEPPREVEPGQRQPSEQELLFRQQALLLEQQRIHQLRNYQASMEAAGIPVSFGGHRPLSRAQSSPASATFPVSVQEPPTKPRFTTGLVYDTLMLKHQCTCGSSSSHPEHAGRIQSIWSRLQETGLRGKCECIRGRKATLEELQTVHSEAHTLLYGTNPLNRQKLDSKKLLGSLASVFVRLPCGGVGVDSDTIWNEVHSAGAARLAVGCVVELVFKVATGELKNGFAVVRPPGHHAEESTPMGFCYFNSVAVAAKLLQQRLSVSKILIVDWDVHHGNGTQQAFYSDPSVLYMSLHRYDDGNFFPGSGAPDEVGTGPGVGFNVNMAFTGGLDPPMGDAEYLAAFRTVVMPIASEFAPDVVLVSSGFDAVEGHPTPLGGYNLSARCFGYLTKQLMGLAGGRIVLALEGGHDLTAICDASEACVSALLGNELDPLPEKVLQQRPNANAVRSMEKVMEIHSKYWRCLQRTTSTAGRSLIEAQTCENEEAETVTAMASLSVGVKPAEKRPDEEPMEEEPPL
PROTOCOL: Inhibition of human recombinant HDAC4 using Boc-Lys(Ac)-AMC as substrate preincubated for 15 mins followed by substrate addition and measured after 60 mins by fluorescence based analysis
ASSAY READOUT: pIC50
In plain terms, pIC50 is the concentration in mol/L turned into minus its base-10 logarithm.

Q: Answer with the recorded pIC50 of Cc1noc(C)c1-c1ccc2c(c1)c(Cc1ccc(F)cc1)cn2CCCCCCCC(=O)NO only.
A: 8.30
